- Tested on: Bacillus subtilis
- experimental_details: cleaved RNA product abundance (RNA/gDNA barcode ratio) relative to median wild-type variant (ratio to wild type); higher = more accumulation of the downstream cleavage product
- condition_details: experiment (reporter, strain, medium): exp 8a: truncated aprE reporter, strain BJT201 with 2% xylose (RNase J1 expressed); cleavage site: glnRA (positions -5 to +31 mutated)
Assign 1 (yes) to entries whose cleaved RNA product abundance meets or exceeds 0.4; assign 0 (no) to the rest.

Worked cases, answers included:
[
  {
    "chain_sequence": "CGACATGTCCCGCTTCTTTCATTAATCCGATTGCAACTGTTTTGCTATATACATTTACCTTTTAAGAGGAGGAAT",
    "label": "0 (no)"
  },
  {
    "chain_sequence": "CGACATGTCCCGCTTCTTTCATTAATCCGTTAGCAACTGTTTTGCTATATACATATACCTTTTAAGAGGAGGAAT",
    "label": "1 (yes)"
  },
  {
    "chain_sequence": "CGACATGTCCCGCTTCTTTCATTAACCCGTTAGCAACTGTTTTGCTATATACATTTACATTTTAAGAGGAGGAAT",
    "label": "1 (yes)"
  },
  {
    "chain_sequence": "CGACATGTCCCGCTTCTTTCATTAACCCGTTACTCACTGTTTTGGAATATACATTTACCTTTTAAGAGGAGGAAT",
    "label": "0 (no)"
  },
  {
    "chain_sequence": "CGACATGTCCCGCTTCTTTCATTACGCCGTTAGCAACTGTTTTGCTATATACATTTACCTTTTAAGAGGAGGAAT",
    "label": "1 (yes)"
  },
  {
    "chain_sequence": "CGACATGTCCCGCTTCTTTCATTACTCTGTTAGCAACTGTTTTGCTATATACATTTACCTTTTAAGAGGAGGAAT",
    "label": "1 (yes)"
  }
]

Assess whether reported cleaved RNA product abundance for CGACATGTCCCGCTTCTTTCATTATTCCGTTAGCAACTGTTTTGCTATATACATTTCCCTTTTAAGAGGAGGAAT sits at 0.4 or higher.
1 (yes)

Assess whether reported cleaved RNA product abundance for CGACATGTCCCGCTTCTTTCATTAATCCATTAGCAGCTGTTTTGCTATATACATTTACCTTTTAAGAGGAGGAAT sits at 0.4 or higher.
0 (no)
